Would you mind telling me the reported protein stability index of each entry?
B1: RIT1 (parent)
chain: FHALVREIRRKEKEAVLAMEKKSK

variants of: B1; experiment: protein stability index of a GFP-peptide fusion (GPS, HEK-293T) (PSI 1-6); higher = more stable; conditions: c terminus: a fixed tail appended;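 further: lentivirally expressed fusions sorted by FACS into six bins by GFP to DsRed ratio, PSI derived from sequencing read proportions per bin multiplied by bin number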
Provide a numeric answer; units are not to be included.

Query :: Using the record for K22D , report its protein stability index.
Result :: 1.8

Query :: Note, next up: K13Q
Result :: 2.58

Query :: Note, next up: R10W
Result :: 1.75

Query :: Note, next up: R9A
Result :: 1.82

Query :: Note, next up: R10I
Result :: 2.61

Query :: Note, next up: E20W
Result :: 2.98

Query :: Note, next up: A18E
Result :: 1.22

Query :: Note, next up: M19W
Result :: 1.53

Query :: Note, next up: M19P
Result :: 1.7

Query :: Note, next up: M19V
Result :: 1.79

Query :: Note, next up: K11T
Result :: 2.19
